# key: entry, value: optical density
target.entity: human Fc (human)
test: ELISA, negative control
Reply with a number, then the unit it belongs to.

Please review the following examples before continuing.
367_H01 (antibody, V domains shown) VH: EVQLLESGGGLVQPGGSLRLSCAASGFTFDSYGMNWVRQAPGKGLEWVSGINYNGGYKSYADSVKGRFTISRDNSKNTLYLQMNSLRAEDTAVYYCARAANWHDTALDYWGQGTLVTVSS VL: DIQMTQSPSSLSASVGDRVTITCRASQSILTYLNWYQQKPGKAPKLVIYAATSRASGVPSRFSGSGSGTDFTLTISSLQPEDFATYYCQQSYDNPLTFGGGTKVEIK :: 0.388 OD
369_E03 (antibody, V domains shown) VH: EVQLLESGGGLVQPGGSLRLSCAASGFTFSSYGMHWVRQAPGKGLEWVAGINYNGGYTSYADSVKGRFTISRDNSKNTLYLQMNSLRAEDTAVYYCARAATWHDTHLDYWGQGTLVTVSS VL: DIQMTQSPSSLSASVGDRVTITCRASQSILSYVNWYQQKPGKAPKLLIYAATSLASGVPSRFSGSGSGTDFTLTISSLQPEDFATYYCQQSYENPLTFGGGTKVEIK :: 0.63 OD
371_B09 (antibody, V domains shown) VH: EVQLLESGGGLVQPGGSLRLSCAASGFTFSSYSMNWVRQAPGKGLEWVAGINYNSGYTGYADSVKGRFTISRDNSKNTLYLQMNSLRAEDTAVYYCARGANWHDTHLDYWGQGTLVTVSS VL: DIQMTQSPSSLSASVGDRVTITCRASQSILSYVNWYQQKPGKAPKLVIYATTSLASGVPSRFSGSGSGTDFTLTISSLQPEDFATYYCQQSYDTPLTFGGGTKVEIK :: 0.292 OD
373_C10 (antibody, V domains shown) VH: EVQLLESGGGLVQPGGSLRLSCAASGFTFSSYSMNWVRQAPGKGLEWVAGINYNGGYTSYADSVKGRFTISRDNSKNTLYLQMNSLRAEDTAVYYCARGANWHDTALDYWGQGTLVTVSS VL: DIQMTQSPSSLSASVGDRVTITCRASQSILTYVNWYQQKPGKAPKLLIYAATSRASGVPSRFSGSGSGTDFTLTISSLQPEDFATYYCQQSYDNPLTFGGGTKVEIK :: 0.318 OD

Now consider the entry below.
Provide optical density value for the following binder: 375_E10 (antibody, V domains shown) VH: EVQLLESGGGLVQPGGSLRLSCAASGFTFSSYSMNWVRQAPGKGLEWVSGINYNGGYTSYADSVKGRFTISRDNSKNTLYLQMNSLRAEDTAVYYCARGANWHDTALDYWGQGTLVTVSS VL: DIQMTQSPSSLSASVGDRVTITCRASQSILSYLNWYQQKPGKAPKLVIYAATSRASGVPSRFSGSGSGTDFTLTISSLQPEDFATYYCQQSYDNPLTFGGGTKVEIK
0.187 OD
